# Test system: Staphylococcus epidermidis
# run.description: Antimicrobial activity against Staphylococcus epidermidis H 6966/08 after 24 hrs by microdilution method
# Format: functional
# conditions.used: H 6966/08, 24 h
Items are presented alongside their recorded log10 of MIC.
Friendly reminder: values = log10 of MIC, unit µM.

Exercise: Quick one: log10 of MIC for CN(C)C(=S)Oc1ccc(Cl)cc1C(=O)Nc1ccc(C(F)(F)F)cc1 ?
Solution: 1.49

Exercise: Here is the next compound: CN(C)C(=S)Oc1ccc(Cl)cc1C(=O)Nc1ccc(Cl)cc1
Solution: 0.89

Exercise: Please answer likewise for CN(C)C(=S)Oc1ccc(Cl)cc1C(=O)Nc1ccc(Br)cc1
Solution: -0.31

Exercise: Same again, this time with CN(C)C(=S)Oc1ccc(Cl)cc1C(=O)Nc1ccc(F)cc1
Solution: 1.49

Exercise: Now this one: CN(C)C(=O)Oc1ccc(Cl)cc1C(=O)Nc1ccc(Cl)cc1
Solution: 2.10

Exercise: Record: CC1(C)S[C@@H]2[C@H](NC(=O)Cc3ccccc3)C(=O)N2[C@H]1C(=O)O
Solution: 2.40

These measurements were taken from ChEMBL document CHEMBL3352384.
